Target: Recombinant STAT3 protein (STAT3 (G127-I722)) (Homo sapiens, UniProt P40763)
Construct: Recombinant STAT3 protein (STAT3 (G127-I722))
Sequence (P40763 127-722): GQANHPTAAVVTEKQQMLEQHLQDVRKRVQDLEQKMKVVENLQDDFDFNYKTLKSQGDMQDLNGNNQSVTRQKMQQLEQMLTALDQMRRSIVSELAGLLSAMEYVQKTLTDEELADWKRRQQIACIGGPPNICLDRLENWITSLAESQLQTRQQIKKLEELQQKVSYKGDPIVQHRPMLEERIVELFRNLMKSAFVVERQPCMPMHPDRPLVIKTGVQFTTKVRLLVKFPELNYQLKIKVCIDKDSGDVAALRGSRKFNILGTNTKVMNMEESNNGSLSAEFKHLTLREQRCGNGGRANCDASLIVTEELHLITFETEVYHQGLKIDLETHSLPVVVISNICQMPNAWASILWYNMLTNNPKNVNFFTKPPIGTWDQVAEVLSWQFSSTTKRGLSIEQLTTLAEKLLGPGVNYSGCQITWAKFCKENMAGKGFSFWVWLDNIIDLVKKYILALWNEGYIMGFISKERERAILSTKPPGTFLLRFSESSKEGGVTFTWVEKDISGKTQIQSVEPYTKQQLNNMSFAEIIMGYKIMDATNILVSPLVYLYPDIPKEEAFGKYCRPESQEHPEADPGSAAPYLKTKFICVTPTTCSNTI
Test: STAT3 Fluorescence Polarization (FP) Assay
Format: binding
Conditions: STAT3 25 nM, probe 5-FAM-GpYLPQTV-NH2 2 nM, 45-minute incubation; read-out: STAT3 (FP assay IC50)
Procedure: STAT3 Fluorescence Polarization (FP) Assay An FP assay was developed to determine IC50 values for test substances. […] Reaction components were mixed, and FP was measured after 45-minute incubation at room temperature using a Tecan Spark multimode plate reader. FP signal (mP) was plotted against the log concentration of the test substances and IC50 values were calculated by nonlinear regression analysis using GraphPad Prism software. […]
pIC50: −log10 of the molar value.
We begin with a simple list: items and their reported pIC50.

>>> result("O=C(N[C@H]1CCC[C@H]2CC[C@@H](C(=O)N3CC(c4ncccn4)C3)N2C1=O)c1cc2cc(C(F)(F)P(=O)(O)O)ccc2s1 [Compound 46]")
"> 7.00"
>>> result("N#C[C@@H]1CN(C(=O)[C@@H]2CC[C@@H]3CCCC[C@H](NC(=O)c4cc5cc(C(F)(F)P(=O)(O)O)ccc5s4)C(=O)N32)C[C@H]1c1ccccc1 (single isomer, unassigned) [Compound 22]")
"5.00 to 6.00"

Prompt: Need pIC50, item O=C(N[C@H]1C=CC[C@H]2CC[C@@H](C(=O)Nc3ccc(-c4ccccc4)cc3)N2C1=O)c1cc2cc(C(F)(F)P(=O)(O)O)ccc2s1 [Compound 97]
Response: 6.00 to 7.00

* * *

Biological target: Recombinant STAT6 protein (STAT6 (W123-T658)) (Homo sapiens)
Construct: Recombinant STAT6 protein (STAT6 (W123-T658))
Sequence (P42226 123-658): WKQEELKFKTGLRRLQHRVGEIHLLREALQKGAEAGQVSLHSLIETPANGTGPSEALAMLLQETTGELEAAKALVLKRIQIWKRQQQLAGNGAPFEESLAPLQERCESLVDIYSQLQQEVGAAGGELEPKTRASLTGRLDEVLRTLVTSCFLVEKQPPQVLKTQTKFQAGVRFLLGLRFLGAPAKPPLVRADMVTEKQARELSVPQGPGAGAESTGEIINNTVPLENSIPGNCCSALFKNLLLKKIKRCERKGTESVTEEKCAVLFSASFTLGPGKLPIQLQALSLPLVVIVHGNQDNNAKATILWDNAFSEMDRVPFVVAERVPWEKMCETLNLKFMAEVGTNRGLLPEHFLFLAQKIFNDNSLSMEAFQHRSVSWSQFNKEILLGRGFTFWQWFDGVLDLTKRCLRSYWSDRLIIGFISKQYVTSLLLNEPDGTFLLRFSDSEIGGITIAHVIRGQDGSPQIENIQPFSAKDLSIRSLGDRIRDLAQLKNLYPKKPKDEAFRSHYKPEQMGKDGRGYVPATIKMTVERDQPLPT
Assay: STAT6 Fluorescence Polarization (FP) Assay
Format: binding
Settings: STAT6 (W123-T658) 250 nM, probe 5-FAM-Ap[…]-NH2 2 nM, 45-minute incubation; read-out: STAT6 (FP assay IC50 class)
We begin with a simple list: items and their reported IC50.

>>> result("COC1(CS(C)(=N)=O)CN(C(=O)[C@@H]2CC[C@@H]3CCC[C@H](NC(=O)c4cc5cc(C(F)(F)P(=O)(O)O)ccc5s4)C(=O)N32)C1 (stereo partly drawn)")
"3000 to 30000 nM"

Prompt: Need IC50, item N#C[C@@H]1[C@@H](c2ccccc2)CN(C(=O)[C@@H]2CC[C@@H]3CCCC[C@H](NC(=O)c4cc5cc([C@@H](F)P(=O)(O)O)ccc5s4)C(=O)N32)C12CC2 (single isomer, unassigned)
Response: ≤ 300 nM

Prompt: `C[C@H]1C[C@H]2CC[C@@H](C(=O)N3C[C@@H](c4cccnc4)CC34CC4)N2C(=O)[C@@H](NC(=O)c2cc3cc([C@H](F)P(=O)(O)O)ccc3s2)C1` , same question.
Response: ≤ 300 nM
